tested on: SN12C renal; test: NCI tumour cell line growth inhibition, 48 h
experimentalEndpoint: TGI

Exercise: Look up TGI of O=C(OC1C#CCSCC#C/C=C\1)c1cnc2ccccc2n1 (stereo not drawn) and report it.
Key: > 100 µM

Exercise: Could you please provide reported TGI for `NC(=S)N/N=C/c1cn(CCCl)c2ccccc12` ? Thanks!
Key: > 100 µM

Exercise: Please report the measured TGI for `Cc1ccc(C)n1-n1c(Cc2ccc(Cl)cc2)n[nH]c1=O`
Key: > 100 µM

* * *

system: BT-549 breast; test: NCI tumour cell line growth inhibition, 48 h; in the data active = GI50 below about 0.43 µM; inactive = the rest
The categories you may choose from are true (1) = active, false (0) = inactive

Exercise: I'd appreciate the recorded outcome for `O=C(CSc1nc2ccc([N+](=O)[O-])cc2[nH]1)Nc1ccc([N+](=O)[O-])cc1` from this test.
Key: false (0)

Exercise: Name the outcome recorded for `CC(C)[C@]12O[C@H]1[C@@H]1O[C@]13[C@]1(O[C@H]1C[C@H]1C4=C(CC[C@@]13C)C(=O)OC4)[C@@H]2OC(=O)OC(C)(C)C` in the assay.
Key: true (1)

Exercise: Which result was noted for this molecule in the test: `O=C(/C=C/c1cccnc1)c1ccccc1`
Key: false (0)

* * *

test system: IGROV1 ovarian; assay: NCI tumour cell line growth inhibition, 48 h
So I've got a bunch of compounds here, and I need their TGI values.

Exercise: For IGROV1 ovarian, give the measured TGI of the entry `C=CC(C)(C)c1c(OC)oc2ccc(OC)c(C)c2c1=O`
Key: > 100 µM

Exercise: State TGI on IGROV1 ovarian. Entry: `Brc1ccc2[nH]cc([C@@H]3CN[C@@H](c4c[nH]c5ccc(Br)cc45)CN3)c2c1`
Key: 16.6 µM

Exercise: Recall the reported TGI of `N#Cc1nc(/C=C/c2cccs2)oc1N` when tested on IGROV1 ovarian.
Key: > 100 µM

* * *

test system: HS 578T breast; test: NCI tumour cell line growth inhibition, 48 h
Exercise: state measured TGI for each of the compounds provided.

Exercise: Input Cc1nn(C(=O)c2ccc(Cl)cc2)c2c1C(c1ccccc1)SC(N)=N2 (stereo not drawn) , output reported TGI.
Key: > 10 µM

Exercise: Note TGI for the compound shown: `Oc1c(Nc2ccccc2)cc2c3c1N=NC=3CCN=2`
Key: > 100 µM

Exercise: Give recorded TGI. `CCOC(=O)Nc1ccc2c3c(cccc13)-c1ccccc1-2`
Key: > 100 µM

* * *

test system: TK-10 renal; test: NCI tumour cell line growth inhibition, 48 h
Answer each item with its documented TGI.

Exercise: Return the recorded TGI value; entry: `NNC(=S)N/N=C/c1ccccn1`
Key: > 100 µM

Exercise: Provide only the value of recorded TGI for `CCOC(=O)Nc1ccc2c3c(cccc13)-c1ccccc1-2`
Key: > 100 µM

Exercise: Please give the documented TGI of `Cc1ccc(NCCO)cc1`
Key: > 100 µM

Exercise: Report TGI for `NS(=O)(=O)c1ccc(N=Nc2c(O)[nH]c3cccc(CCc4ccncc4)c23)cc1`
Key: > 25 µM

Exercise: Please report TGI for the following molecule: `COc1cc(C)cc(C(=O)OCc2ccccc2)c1C1=C(Cl)C(=O)C(Cl)=CC1=O`
Key: > 10 µM

Exercise: Quote TGI reported for `CSc1nc(SC)c2c(C)cn(Cc3ccccc3)c2n1` please.
Key: > 100 µM

Exercise: Entry `CCOC(=O)Nc1nc(-c2ccccc2)c(C)s1` needs its TGI filled in; supply it.
Key: > 100 µM

Exercise: Note down TGI recorded for `O=C(O)c1ccc(NCn2nc(-c3ccccc3O)oc2=S)cc1O`
Key: > 100 µM

Exercise: Report TGI, nothing else, for this molecule: `CCOC(=O)C(=NN(C)c1ncccc1N)C(=O)OCC`
Key: > 100 µM

Exercise: Please list TGI recorded for the molecule `N#Cc1nc(N)c(C#N)[nH]1`
Key: > 100 µM

Exercise: Item `COc1ccc(C(=O)/C=C/c2ccc(OCC(=O)N3CCN(c4ccccc4)CC3)cc2)cc1OC` : provide TGI
Key: > 10 µM

Exercise: Identify measured TGI corresponding to `O=C(CC(O)(C(F)(F)Cl)C(F)(F)Cl)CC(O)(C(F)(F)Cl)C(F)(F)Cl`
Key: > 10 µM

Exercise: Identify the reported TGI for the following entry. CC(=O)OC12c3ccccc3C(c3ccccc31)C1C(=O)N(Nc3ccccc3)C(=O)C12 (centres undefined)
Key: > 100 µM

Exercise: Identify measured TGI corresponding to CC(=O)OC1C(COC(N)=O)OC(n2c(-c3ccc(C)cc3)cc(-c3ccccc3)c(C#N)c2=O)C(OC(C)=O)C1OC(C)=O (centres undefined)
Key: > 100 µM

* * *

tested on: MCF7 breast; test: NCI tumour cell line growth inhibition, 48 h; in the data active = GI50 below about 0.43 µM; inactive = the rest
Outcome (select one): active, inactive

Exercise: Field: outcome | Entry: `Cc1cn2c(/C=N/NC3=NCCN3)c(-c3ccc(Cl)c([N+](=O)[O-])c3)nc2s1`
Key: inactive

Exercise: Test call for this compound, please: `O=C1NC(=N[C@@H]2C[C@H]2c2ccccc2)S/C1=C\c1ccc2ncccc2c1`
Key: inactive

Exercise: Assay result, entry `COc1c(O)cc2c(c1CC=C(C)C)OC(=O)c1c(cc(O)c(CC=C(C)C)c1O)O2` — outcome?
Key: inactive

Exercise: Entry COc1ccc2c(c1)OC(N)=C(C#N)C2c1ccc(F)c(F)c1 (stereo unspecified) : call = ?
Key: active

Exercise: Check the results log: what was the call for `CN(CCNc1ccc(C(=N)N)cc1)c1ccc(C(=N)N)cc1` ?
Key: inactive

Exercise: Recorded test call requested for `Clc1ccc(Nc2ncnc3ccccc23)cc1`
Key: inactive

* * *

Could you please report measured TGI for the items listed next?
test system: EKVX NSCLC; test: NCI tumour cell line growth inhibition, 48 h
Where a SMILES comes first, the peptide text is derived from it. The star is where a group is joined. Boc = CC(C)(C)OC(=O)*

Exercise: Look up and state reported TGI for O=c1n(Cc2ccccc2)c2ccccc2n1CC1CS1 (stereo not drawn)
Key: > 100 µM

Exercise: Tell me measured TGI for CCN(CC)CCC1CCCCN1CC(=O)N1c2ccccc2NC(=O)CC1C (stereo not drawn) please.
Key: > 100 µM

Exercise: Given N#CC1(C#N)C2C=CC(C3CC=CC32)C1(C#N)C#N (stereo not drawn) , respond with its TGI.
Key: 24 µM

Exercise: Give TGI for `O=C(NCCNc1nccc(-c2c(-c3ccc(F)cc3)nc3sccn23)n1)Nc1cccc(C(F)(F)F)c1`
Key: 30.6 µM

Exercise: Recall and state the measured TGI for `CC(C)[C@]12O[C@H]1[C@@H]1O[C@]13[C@]1(O[C@H]1C[C@H]1C4=C(CC[C@@]13C)C(=O)OC4)[C@@H]2OC(=O)OC(C)(C)C` .
Key: > 100 µM

Exercise: Given the compound `CCOC(=O)Nc1nc(-c2ccccc2)c(C)s1` , write its reported TGI.
Key: > 100 µM

Exercise: Fill in reported TGI for this entry: `Cc1cc2c(=O)cc(-c3ccc(O)cc3)oc2c(C(=O)O)c1C`
Key: > 100 µM

Exercise: Tell me its TGI given `CNC(=S)N/N=C(\C)c1cc(OC)c(OC)cc1O` as the entry.
Key: > 100 µM

Exercise: Assign TGI to the following record: `C/C(CC(O)(C(F)(F)Cl)C(F)(F)Cl)=N\Nc1ccccc1`
Key: 93.8 µM

Exercise: Give TGI for the following compound: `CN(CCNc1ccc(C(=N)N)cc1)c1ccc(C(=N)N)cc1`
Key: > 100 µM

Exercise: Query TGI for CC(=O)OC12c3ccccc3C(c3ccccc31)C1C(=O)N(Nc3ccccc3)C(=O)C12 (stereo not drawn)
Key: > 100 µM

Exercise: State its TGI for this compound: `Fc1cc(C2=Nn3c(nnc3-c3cc(F)c(Cl)cc3Cl)SC2)c(Cl)cc1Cl`
Key: 90.3 µM

Exercise: Item `COc1ccc2cc(NC(=O)Nn3cnnc3)ccc2c1` : provide TGI
Key: > 100 µM

Exercise: Return TGI for the following compound: CNC(=O)CNC(=O)C(NC(=O)CNC(=O)C1CCCN1C(=O)C(C)NC(=O)C(NC(=O)OC(C)(C)C)C(C)C)C(C)C (stereo not drawn) (Boc-VAPGVG-NHMe; configuration not given here)
Key: > 100 µM

Exercise: State, in one line, measured TGI of `CNC(=O)Nn1c(SC)nc2ccccc21`
Key: > 100 µM

Exercise: Look up TGI of `CCOC(=O)c1sc(Nc2cc(Cl)ccc2Cl)nc1C` and report it.
Key: > 100 µM

Exercise: Output measured TGI for this item: `O=C(CC(O)(C(F)(F)Cl)C(F)(F)Cl)CC(O)(C(F)(F)Cl)C(F)(F)Cl`
Key: 8.02 µM

Exercise: Return the recorded TGI value; entry: `Cc1ccc(C)c(N2C(=O)C(=O)C(c3nc4ccccc4s3)C(=O)C2=O)c1`
Key: > 100 µM

Exercise: Identify the reported TGI for the following entry. c1ccc(C2C3=C(c4ccccc4CC3)N3c4cc5nc6ccccc6nc5cc4NC34CCCCC24)cc1 (stereo not drawn)
Key: > 10 µM

Exercise: Report TGI for `[N-]=[N+]=NCC(=O)c1c[nH]c(=O)[nH]c1=O`
Key: > 100 µM

Exercise: Please indicate TGI recorded for `COc1cc(C)cc(C(=O)OCc2ccccc2)c1C1=C(Cl)C(=O)C(Cl)=CC1=O`
Key: > 10 µM

Exercise: Return TGI for the following compound: `COC(=O)Nc1nc2ccc(C(=O)C3CC3)cc2[nH]1`
Key: > 100 µM

Exercise: Give the value of TGI reported for the following: `O=P1(O)c2ccccc2CSCc2ccccc21`
Key: > 100 µM
